Target: human TLR7 (Homo sapiens, UniProt Q9NYK1)
Construct: HA; host or cells: 293XL-hTLR7-HA (HEK293)
Sequence (Q9NYK1 27-1049): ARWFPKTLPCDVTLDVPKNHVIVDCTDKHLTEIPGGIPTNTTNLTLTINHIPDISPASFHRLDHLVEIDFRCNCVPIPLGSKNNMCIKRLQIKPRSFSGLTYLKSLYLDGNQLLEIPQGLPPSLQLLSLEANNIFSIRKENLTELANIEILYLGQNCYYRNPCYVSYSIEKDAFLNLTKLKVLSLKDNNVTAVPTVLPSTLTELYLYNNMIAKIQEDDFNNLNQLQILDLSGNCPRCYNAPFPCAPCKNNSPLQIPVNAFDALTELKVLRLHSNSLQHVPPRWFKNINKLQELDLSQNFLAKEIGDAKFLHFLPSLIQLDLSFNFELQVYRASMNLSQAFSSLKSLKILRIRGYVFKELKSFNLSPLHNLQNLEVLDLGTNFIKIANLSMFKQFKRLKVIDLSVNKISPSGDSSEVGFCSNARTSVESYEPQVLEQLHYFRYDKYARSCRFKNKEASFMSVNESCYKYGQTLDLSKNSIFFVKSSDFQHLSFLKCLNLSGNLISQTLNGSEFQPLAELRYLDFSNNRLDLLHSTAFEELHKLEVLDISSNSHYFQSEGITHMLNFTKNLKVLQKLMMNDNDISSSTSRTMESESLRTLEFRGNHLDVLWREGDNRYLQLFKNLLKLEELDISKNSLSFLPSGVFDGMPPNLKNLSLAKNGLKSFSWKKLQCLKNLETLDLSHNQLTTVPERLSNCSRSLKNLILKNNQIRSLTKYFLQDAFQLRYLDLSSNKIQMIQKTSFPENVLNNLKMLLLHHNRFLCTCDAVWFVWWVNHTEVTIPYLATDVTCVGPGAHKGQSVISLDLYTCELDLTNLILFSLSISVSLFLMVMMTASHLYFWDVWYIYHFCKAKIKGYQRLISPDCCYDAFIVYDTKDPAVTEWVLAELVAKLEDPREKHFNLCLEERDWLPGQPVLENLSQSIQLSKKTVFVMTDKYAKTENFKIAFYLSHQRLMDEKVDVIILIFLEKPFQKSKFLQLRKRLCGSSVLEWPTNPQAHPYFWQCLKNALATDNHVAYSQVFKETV
Assay: HEK-TLR7 NF-κB-luciferase reporter, R848 stimulation
Format: cell-based
Settings: ASO 100 nM; relative to R848 only, given as fraction
Please map values of TLR7 100 nM (averaged NF-κB-Luciferase level relative to R848 condition) to classes as shown: low end (below 0.6), middle (0.6 to below 0.7), high end (0.7 or more)

Solved cases below.
| biosequence | system.tested | discrete.label |
| --- | --- | --- |
| TCGTGGGGTCCTTTTC (antisense; LNA-modified, pattern not given here) [HPRT LNA-660 V1] | human TLR7 (Homo sapiens, UniProt Q9NYK1) | low end |
| GCATCCACCACGTCGT (antisense; LNA-modified, pattern not given here) [EGFR-3267 LNA V1] | human TLR7 (Homo sapiens, UniProt Q9NYK1) | low end |
| CCACATCCTGTGGCTC (antisense; LNA-modified, pattern not given here) [CAMSAP1-2906 LNA V1] | human TLR7 (Homo sapiens, UniProt Q9NYK1) | high end |
| GTCTTCATCGGCCCTG (antisense; LNA-modified, pattern not given here) [CAMSAP1-2113 LNA V1] | human TLR7 (Homo sapiens, UniProt Q9NYK1) | middle |
| CATCCACCACGTCGTC (antisense; LNA-modified, pattern not given here) [EGFR-3266 LNA V1] | human TLR7 (Homo sapiens, UniProt Q9NYK1) | high end |

Exercise: read the entry TACTTTCCGAGGTGTC (antisense; LNA-modified, pattern not given here) [CAMSAP1-1739 LNA KL] and state which class it falls under.
high end

Bin this entry: TCCATACCCAAGGCAT (antisense; LNA-modified, pattern not given here) [CTNN2B-2446 LNA V1]
high end

The entry to classify is GTCCTTGCACGTGGCT (antisense; LNA-modified, pattern not given here) [EGFR-1015 LNA V1] ; which class holds it?
low end

Field: class (TLR7 100 nM (averaged NF-κB-Luciferase level relative to R848 condition)) — entry: AGGTCTTGGCTTCGTG (antisense; LNA-modified, pattern not given here) [MB21D1-524 LNA V1]
low end

Which band does TCCGCCCAAAGGGAAC (antisense; LNA-modified, pattern not given here) [HPRT LNA-1027 KL] fall in?
high end

Assign a category based on measured TLR7 100 nM (averaged NF-κB-Luciferase level relative to R848 condition) for GCAGGCTCAGTGATGT (antisense; LNA-modified, pattern not given here) [CTNN2B-1642 LNA V1] and give only the class name.
middle

Which class holds TGCACACTTCGTACCC (antisense; LNA-modified, pattern not given here) [CAMSAP1-4916 LNA V1] ?
high end

Determine which band this sequence sits in: GTATCGAAAGAGTCTG (antisense; LNA-modified, pattern not given here) [EGFR-3908 LNA KL]
low end

###

biological target: human TLR7 (Homo sapiens); construct: HA; host or cells: 293XL-hTLR7-HA (HEK293); assay: HEK-TLR7 NF-κB-luciferase reporter, R848 stimulation; assay type: cell-based; conditions: ASO 500 nM; relative to R848 only, given as fraction
// values below are reported TLR7 500 nM (averaged NF-κB-Luciferase level relative to R848 condition)
I only need the number, thanks.

Examples with answers:
| biosequence | measured.result |
| --- | --- |
| GTCTTGGCTTCGTGGA (antisense; LNA-modified, pattern not given here) [MB21D1-522 LNA V1] | 0.056 |
| AGGACTCCAGATGTTT (antisense; LNA-modified, pattern not given here) [HPRT LNA pos cont] | 0.293 |
| GGAGGTCTTGGCTTCG (antisense; LNA-modified, pattern not given here) [MB21D1-526 LNA V1] | 0.119 |

Entry CCAACACTTCGTGGGG (antisense; LNA-modified, pattern not given here) [HPRT LNA-668 V1] ; TLR7 500 nM (averaged NF-κB-Luciferase level relative to R848 condition) = 0.446

Entry under test: GTGATGGCCTCCCATC (antisense; LNA-modified, pattern not given here) [HPRT LNA-333 V1] . Its TLR7 500 nM (averaged NF-κB-Luciferase level relative to R848 condition) was 0.139

Please fill in: TLR7 500 nM (averaged NF-κB-Luciferase level relative to R848 condition) reported for TTTTGGCTGGGATCAA (antisense; LNA-modified, pattern not given here) [CAMSAP1-4697 LNA KL] = 0.305

For this sequence ( AACACTTCGTGGGGTC (antisense; LNA-modified, pattern not given here) [HPRT LNA-666 V1] ), measured TLR7 500 nM (averaged NF-κB-Luciferase level relative to R848 condition) is 0.445

Consider GTCTTCATCGGCCCTG (antisense; LNA-modified, pattern not given here) [CAMSAP1-2113 LNA V1] . Its measured TLR7 500 nM (averaged NF-κB-Luciferase level relative to R848 condition) is 0.119

Recorded result, TGACAAAGATTCACTG (antisense; LNA-modified, pattern not given here) [HPRT LNA-1353 KL] , TLR7 500 nM (averaged NF-κB-Luciferase level relative to R848 condition): 0.430

###

biological target: cGAS (Homo sapiens, UniProt Q8N884); assay: ISD70-driven IP-10 (and IFN-β) production in THP-1 cells, ELISA; type: cell-based; parameters: endogenous in cells; host or cells: THP-1 (undifferentiated); conditions: THP-1; 6 h pre-treatment, ISD70 2.5 μg/ml overnight (FIG. 3A); read-out: IC50 (IP-10 production after ISD70 transfection)
Sequence (Q8N884 whole entry): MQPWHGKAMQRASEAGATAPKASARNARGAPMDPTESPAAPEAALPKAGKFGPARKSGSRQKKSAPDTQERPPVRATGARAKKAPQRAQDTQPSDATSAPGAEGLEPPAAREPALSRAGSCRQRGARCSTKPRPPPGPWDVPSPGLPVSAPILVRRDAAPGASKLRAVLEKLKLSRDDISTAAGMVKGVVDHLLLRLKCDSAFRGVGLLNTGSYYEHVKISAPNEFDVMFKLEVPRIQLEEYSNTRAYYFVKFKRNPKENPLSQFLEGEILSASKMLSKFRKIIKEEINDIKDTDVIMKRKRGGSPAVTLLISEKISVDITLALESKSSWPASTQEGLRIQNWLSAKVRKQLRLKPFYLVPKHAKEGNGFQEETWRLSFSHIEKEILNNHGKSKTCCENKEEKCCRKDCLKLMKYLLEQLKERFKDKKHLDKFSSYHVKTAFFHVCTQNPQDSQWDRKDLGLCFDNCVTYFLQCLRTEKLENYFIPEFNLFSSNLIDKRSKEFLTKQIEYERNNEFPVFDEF
In the oligonucleotide strings, read from the 5' end, every base follows the letter of its sugar. An asterisk marks phosphorothioate; unmarked linkages are phosphodiester. Other units and linkages are bracketed, terminal groups are in braces. A string of capitals states the bases alone. d = 2'-deoxy (DNA); m = 2'-O-methyl
endpoint.name: IC50 (nM)
# unit: nM | format: bare number

Log: cGAS (Homo sapiens, UniProt Q8N884), substance mG*mC*mG*mG*mU*A*T*C*C*A*T*G*T*C*C*mC*mA*mG*mG*mC (mG*mC*mG*mG*mU*dA*dT*dC*dC*dA*dT*dG*dT*dC*dC*mC*mA*mG*mG*mC; antisense) [C2-Mut1] , IC50 = 56

###

biological target: human TLR7 (Homo sapiens); construct: HA; host or cells: 293XL-hTLR7-HA (HEK293); assay: HEK-TLR7 NF-κB-luciferase reporter, R848 stimulation; assay type: cell-based; conditions: ASO 100 nM; relative to R848 only, given as fraction
In plain terms, low TLR7 100 nM (averaged NF-κB-Luciferase level relative to R848 condition), meaning strictly below 0.6, gives Condition met, and everything else gives Condition not met.

Reference set, count: 3
| biosequence | discrete.label |
| --- | --- |
| GTTCAGTCCTGTCCAT (antisense; LNA-modified, pattern not given here) [HPRT LNA-292 V1] | Condition met |
| TCTTGGCTTCGTGGAG (antisense; LNA-modified, pattern not given here) [MB21D1-521 LNA V1] | Condition not met |
| TGCTCCTCGGTCTCCC (antisense; LNA-modified, pattern not given here) [CAMSAP1-1850 LNA V1] | Condition not met |

In the record for TTCAGGCGCTGCCTTG (antisense; LNA-modified, pattern not given here) [CAMSAP1-2709 LNA V1] , is TLR7 100 nM (averaged NF-κB-Luciferase level relative to R848 condition) less than 0.6?
Condition not met

API: query returns whether the sequence falls strictly under 0.6 in TLR7 100 nM (averaged NF-κB-Luciferase level relative to R848 condition). Query: GAAAGGTTATGCAAGG (antisense; LNA-modified, pattern not given here) [CTNN2B-916 LNA KL]
Condition met

This collection of values is drawn from patent US20240384268A1.
